The origin of these recorded values is patent US20140072563A1.

# SUBJECT_OF_TEST: T1, hErbB3.hFc (soluble dimeric human ErbB3 extracellular domain fused to human Fc) (human)
# T1 construct: called dimeric
# ASSAY: SPR (Biacore), 25 C, mAb capture format

>  <BINDER>
H1M1819N (antibody, V domains shown, Hybridoma chimeric antibody: human variable domains, mouse constant domains (H1M prefix, mouse Fc)) VH: EVQLVESGGGVVRPGGSLRLSCAASGFTFDDYAMHWVRQAPGKGLEWVAGISWNSGSIDYADSVKGRFTISRDNAKNSLYLQMNSLRAGDTALYYCAKDILDLDYYGLDVWGQGTTVTVSS VL: DIQMTQSPSSLSASVGDRVTITCRASQDISSYLAWYQQKPGKVPNLLIYDASSLQSGVPSRFSGSGSGTDFTLTLSSLQPEDFASYYCQNYNSAPYTFGQGTKLEIK

>  <MEASURE_UNIT>
s⁻¹

>  <koff>
5.88e-05

$$$$
>  <BINDER>
H2M1938N (antibody, V domains shown, Hybridoma chimeric antibody: human variable domains, mouse IgG2 Fc (H2M prefix)) VH: EVQLVESGGGVVRPGGSLRLSCAASGFTFDDYGMSWVRQVPGKGLEWVSGLNWNGGITGYTDSVKGRFTISRDNAKNSLYLQMNSLRAEDTAFYHCARDSGDQDAFDIWGQGTMVTVSS VL: QIVMTQSPATLSVSPGERATLSCRASQSITPYLAWYQQKPGQTPRLLIYGVSTRATGIPARFSGSGSGTEFTLTISSLQSEDFAVYYCQQYDNWYTFGQGTKLEIK

>  <MEASURE_UNIT>
s⁻¹

>  <koff>
1.36e-05

$$$$
>  <BINDER>
H2M1936N (antibody, V domains shown, Hybridoma chimeric antibody: human variable domains, mouse IgG2 Fc (H2M prefix)) VH: EMQLVESGGGLVQPDRSLRLSCAASGFNFDNYAIHWVRQAPGKGLEWVSGISWNSGNIGYADSVKGRFTISRDNAKNSLFLLMNSLRPDDSALYYCTRGYNWNALSPMDVWGQGTTVTVSS VL: DIQMTQSPSSLSASVGDRVTVTCRASQGISNYLAWYQQKPGKVPKLLIYAASTLQSGVPSRFSGSGSGTDFTLTISSLQPEDVASYYCQNYNSAPMTFGQGTKVEIK

>  <MEASURE_UNIT>
s⁻¹

>  <koff>
6.97e-05

$$$$
